system-under-test: human α4β7 integrin (Homo sapiens, UniProt P13612+P26010)
Construct: expressed in transfected cells; host or cells: K562 cells, stably transfected
procedure-details: α4β7-K562 Cell Adhesion Assay (α4β7 Mediated Adhesion/MAdCAM-1)
Assay type: cell-based
run-conditions: K562 cells expressing human α4β7 adhering to FLAG-hMAdCAM-1, 1 mM Mn2+
Description: α4β7-K562 Cell Adhesion Assay (α4β7 Mediated Adhesion/MAdCAM-1) M2 anti-FLAG Antibody Coated 96-well plates (Sigma) were coated for 1 hour at 4° C. with 2-8 μL/well recombinant FLAG-hMAdCAM-1 contained in 100 μL of Dulbecco's PBS, pH 7.4, with 1% BSA and 1 mM Mn^2+ (PBS-BSA-Mn). Plates were washed once with PBS-BSA-Mn. […] The plate was read on a 96-well fluorescent plate reader at 485 nm excitation and 530 nm emission.
assay-endpoint: IC50 (µM)

molecule	system-under-test	recorded-value
COc1cnn(C)c(=O)c1-c1ccc(C[C@H](NC(=O)N2CCCN(c3nc4ccccc4o3)CC2)C(=O)O)cc1 [Cpd 30]	human α4β7 integrin (Homo sapiens, UniProt P13612+P26010)	0.156
COc1cnn(C)c(=O)c1-c1ccc(C[C@H](NC(=O)NCc2ccccc2)C(=O)O)cc1 [Cpd 9]	human α4β7 integrin (Homo sapiens, UniProt P13612+P26010)	0.37
CCN(C(=O)N[C@@H](Cc1ccc(-c2c(OC)cnn(C)c2=O)cc1)C(=O)O)c1cc(O)ccc1C [Cpd 44]	human α4β7 integrin (Homo sapiens, UniProt P13612+P26010)	0.024
CCCN(C(=O)N[C@@H](Cc1ccc(-c2c(OC)cnn(C)c2=O)cc1)C(=O)O)c1ccccc1 [Cpd 50]	human α4β7 integrin (Homo sapiens, UniProt P13612+P26010)	0.354

---

system-under-test: human α4β7 integrin (Homo sapiens, UniProt P13612+P26010)
procedure-details: α4β7-K562 Cell Adhesion Assay (α4β7 Mediated Adhesion/MAdCAM-1)
run-conditions: K562 cells expressing human α4β7 adhering to FLAG-hMAdCAM-1, 1 mM Mn2+
pIC50: −log10 of the molar value.

compound	pIC50
COc1cnn(C)c(=O)c1-c1ccc(C[C@H](NC(=O)N(C)CC(C)C)C(=O)OCCO)cc1	5.54
COc1cnn(C)c(=O)c1-c1ccc(C[C@H](NC(=O)N2CCC[C@@H]2CNc2ccccc2)C(=O)O)cc1	6.01
COc1cnn(C)c(=O)c1-c1ccc(CC(NC(=O)N2CCCC2CO)C(=O)O)cc1 (stereo not shown)	6.47
COc1cnn(C)c(=O)c1-c1ccc(C[C@H](NC(=O)N(C)CC(C)C)C(=O)O)cc1	7.77

---

system-under-test: human α4β7 integrin (Homo sapiens, UniProt P13612+P26010)
Sequence (P13612 34-1032): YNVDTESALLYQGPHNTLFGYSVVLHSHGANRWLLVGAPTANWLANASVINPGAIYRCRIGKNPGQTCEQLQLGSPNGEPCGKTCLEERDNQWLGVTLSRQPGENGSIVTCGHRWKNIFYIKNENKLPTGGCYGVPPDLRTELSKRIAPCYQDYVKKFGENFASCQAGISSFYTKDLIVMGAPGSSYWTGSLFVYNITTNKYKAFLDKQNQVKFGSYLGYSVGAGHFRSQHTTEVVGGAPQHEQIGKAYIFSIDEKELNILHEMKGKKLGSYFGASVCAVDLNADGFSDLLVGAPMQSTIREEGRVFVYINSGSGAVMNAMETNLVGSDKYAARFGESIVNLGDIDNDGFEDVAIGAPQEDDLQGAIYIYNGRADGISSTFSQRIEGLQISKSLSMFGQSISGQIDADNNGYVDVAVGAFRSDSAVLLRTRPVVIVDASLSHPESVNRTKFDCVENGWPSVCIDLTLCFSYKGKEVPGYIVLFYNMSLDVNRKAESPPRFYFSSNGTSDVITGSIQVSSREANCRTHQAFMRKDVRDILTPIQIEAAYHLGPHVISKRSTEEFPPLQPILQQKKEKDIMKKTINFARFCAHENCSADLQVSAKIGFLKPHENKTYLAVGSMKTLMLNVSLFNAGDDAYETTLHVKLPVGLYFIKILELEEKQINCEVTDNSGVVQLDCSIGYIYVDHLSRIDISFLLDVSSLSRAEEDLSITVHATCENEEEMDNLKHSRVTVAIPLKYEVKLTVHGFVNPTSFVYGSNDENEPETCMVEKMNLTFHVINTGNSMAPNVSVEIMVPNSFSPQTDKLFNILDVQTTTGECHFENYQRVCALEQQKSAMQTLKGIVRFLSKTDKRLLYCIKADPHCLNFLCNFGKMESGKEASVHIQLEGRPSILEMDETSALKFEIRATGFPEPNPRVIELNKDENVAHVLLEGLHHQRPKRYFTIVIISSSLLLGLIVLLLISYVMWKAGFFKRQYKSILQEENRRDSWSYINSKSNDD
Sequence (P26010 20-798): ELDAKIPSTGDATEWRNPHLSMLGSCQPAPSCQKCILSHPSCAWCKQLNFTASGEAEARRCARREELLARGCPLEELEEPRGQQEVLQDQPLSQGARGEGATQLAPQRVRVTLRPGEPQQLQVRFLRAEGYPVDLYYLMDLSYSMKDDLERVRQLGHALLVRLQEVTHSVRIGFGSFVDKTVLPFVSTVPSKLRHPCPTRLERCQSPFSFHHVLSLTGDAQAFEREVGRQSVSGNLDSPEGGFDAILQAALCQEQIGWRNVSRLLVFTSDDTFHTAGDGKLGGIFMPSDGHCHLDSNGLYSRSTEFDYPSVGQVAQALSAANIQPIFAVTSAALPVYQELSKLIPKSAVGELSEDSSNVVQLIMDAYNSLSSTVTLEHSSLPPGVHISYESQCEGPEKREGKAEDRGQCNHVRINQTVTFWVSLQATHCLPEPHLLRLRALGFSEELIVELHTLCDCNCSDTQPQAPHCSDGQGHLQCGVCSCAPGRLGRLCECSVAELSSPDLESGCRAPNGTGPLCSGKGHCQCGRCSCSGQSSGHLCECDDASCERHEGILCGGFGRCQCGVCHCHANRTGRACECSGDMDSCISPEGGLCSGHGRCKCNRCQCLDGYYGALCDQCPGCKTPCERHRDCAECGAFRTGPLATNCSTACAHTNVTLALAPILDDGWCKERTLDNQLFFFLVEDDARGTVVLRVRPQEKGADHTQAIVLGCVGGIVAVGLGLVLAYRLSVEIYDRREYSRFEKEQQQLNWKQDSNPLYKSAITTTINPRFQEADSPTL
procedure-details: α4β7-K562 Cell Adhesion Assay (α4β7 Mediated Adhesion/MAdCAM-1)
run-conditions: K562 cells expressing human α4β7 adhering to FLAG-hMAdCAM-1, 1 mM Mn2+
Entries annotated with measured IC50

compound	IC50, µM
COc1cnn(C)c(=O)c1-c1ccc(C[C@H](NC(=O)N2CCCCC2C)C(=O)O)cc1 (mixture of isomers)	0.029
COc1cnn(C)c(=O)c1-c1ccc(C[C@H](NC(=O)N2c3ccccc3CC2C)C(=O)O)cc1 (mixture of isomers)	0.39
COc1cnn(C)c(=O)c1-c1ccc(C[C@H](NC(=O)N(C)c2ccccc2)C(=O)O)cc1	0.063

---

system-under-test: α4β1 (Homo sapiens, UniProt P05556+P13612)
Construct: Ramos cells, (50 μL at 2×10^6/mL) labeled with 5 μM Calcein AM; endogenous in cells
procedure-details: Ramos Cell Adhesion Assay (α4β1 Mediated Adhesion/VCAM-1)
run-conditions: Ramos cells adhering to recombinant hVCAM-1
pIC50: −log10 of the molar value.
assay-endpoint: pIC50

compound	system-under-test	recorded-value
COc1cnn(C)c(=O)c1-c1ccc(C[C@H](NC(=O)N(C)CC(C)C)C(=O)O)cc1	α4β1 (Homo sapiens, UniProt P05556+P13612)	5.76
COc1cnn(C)c(=O)c1-c1ccc(C[C@H](NC(=O)N[C@H]2CC3CCC2C3)C(=O)O)cc1 (stereo partly shown)	α4β1 (Homo sapiens, UniProt P05556+P13612)	< 5.30
COc1cnn(C)c(=O)c1-c1ccc(C[C@H](NC(=O)N2CCN(c3ncc(C(F)(F)F)cc3Cl)CC2)C(=O)O)cc1	α4β1 (Homo sapiens, UniProt P05556+P13612)	< 5.30
COc1cnn(C)c(=O)c1-c1ccc(C[C@H](NC(=O)N(Nc2ccccc2)c2ccccc2)C(=O)O)cc1	α4β1 (Homo sapiens, UniProt P05556+P13612)	< 5.30
COc1cnn(C)c(=O)c1-c1ccc(C[C@H](NC(=O)N(O)C2CCCCC2)C(=O)O)cc1	α4β1 (Homo sapiens, UniProt P05556+P13612)	< 5.30
COc1cnn(CCO)c(=O)c1-c1ccc(C[C@H](NC(=O)NC2CCCCC2)C(=O)O)cc1	α4β1 (Homo sapiens, UniProt P05556+P13612)	< 5.30
COc1cnn(C)c(=O)c1-c1ccc(C[C@H](NC(=O)N(Cc2ccccc2)CC(C)C)C(=O)O)cc1	α4β1 (Homo sapiens, UniProt P05556+P13612)	5.58
